Attribution: BigSolDB 2.1

- conditionSet: in PEG-400, 293.15 K
measuredEndpoint: solubility (mole fraction)
Answer as a number with no unit attached.

INPUT: Would you mind telling me what solubility (mole fraction) value was observed for "COc1ccc2c(c1)c(CC(=O)O)c(C)n2C(=O)c1ccc(Cl)cc1" ?
OUTPUT: 0.0751

---

- conditionSet: in water, 318.15 K
measuredEndpoint: solubility (mole fraction)

INPUT: Would you mind telling me what solubility (mole fraction) value was observed for "COc1ccc2c(c1)c(CC(=O)O)c(C)n2C(=O)c1ccc(Cl)cc1" ?
OUTPUT: 6.16e-08

---

- conditionSet: in PEG-400, 308.15 K
measuredEndpoint: solubility (mole fraction)
Answer as a number with no unit attached.

INPUT: Would you mind telling me what solubility (mole fraction) value was observed for "COc1ccc2c(c1)c(CC(=O)O)c(C)n2C(=O)c1ccc(Cl)cc1" ?
OUTPUT: 0.102
